# Study target: KDR (h) (Homo sapiens, UniProt P35968)
# Sequence (P35968 20-1356): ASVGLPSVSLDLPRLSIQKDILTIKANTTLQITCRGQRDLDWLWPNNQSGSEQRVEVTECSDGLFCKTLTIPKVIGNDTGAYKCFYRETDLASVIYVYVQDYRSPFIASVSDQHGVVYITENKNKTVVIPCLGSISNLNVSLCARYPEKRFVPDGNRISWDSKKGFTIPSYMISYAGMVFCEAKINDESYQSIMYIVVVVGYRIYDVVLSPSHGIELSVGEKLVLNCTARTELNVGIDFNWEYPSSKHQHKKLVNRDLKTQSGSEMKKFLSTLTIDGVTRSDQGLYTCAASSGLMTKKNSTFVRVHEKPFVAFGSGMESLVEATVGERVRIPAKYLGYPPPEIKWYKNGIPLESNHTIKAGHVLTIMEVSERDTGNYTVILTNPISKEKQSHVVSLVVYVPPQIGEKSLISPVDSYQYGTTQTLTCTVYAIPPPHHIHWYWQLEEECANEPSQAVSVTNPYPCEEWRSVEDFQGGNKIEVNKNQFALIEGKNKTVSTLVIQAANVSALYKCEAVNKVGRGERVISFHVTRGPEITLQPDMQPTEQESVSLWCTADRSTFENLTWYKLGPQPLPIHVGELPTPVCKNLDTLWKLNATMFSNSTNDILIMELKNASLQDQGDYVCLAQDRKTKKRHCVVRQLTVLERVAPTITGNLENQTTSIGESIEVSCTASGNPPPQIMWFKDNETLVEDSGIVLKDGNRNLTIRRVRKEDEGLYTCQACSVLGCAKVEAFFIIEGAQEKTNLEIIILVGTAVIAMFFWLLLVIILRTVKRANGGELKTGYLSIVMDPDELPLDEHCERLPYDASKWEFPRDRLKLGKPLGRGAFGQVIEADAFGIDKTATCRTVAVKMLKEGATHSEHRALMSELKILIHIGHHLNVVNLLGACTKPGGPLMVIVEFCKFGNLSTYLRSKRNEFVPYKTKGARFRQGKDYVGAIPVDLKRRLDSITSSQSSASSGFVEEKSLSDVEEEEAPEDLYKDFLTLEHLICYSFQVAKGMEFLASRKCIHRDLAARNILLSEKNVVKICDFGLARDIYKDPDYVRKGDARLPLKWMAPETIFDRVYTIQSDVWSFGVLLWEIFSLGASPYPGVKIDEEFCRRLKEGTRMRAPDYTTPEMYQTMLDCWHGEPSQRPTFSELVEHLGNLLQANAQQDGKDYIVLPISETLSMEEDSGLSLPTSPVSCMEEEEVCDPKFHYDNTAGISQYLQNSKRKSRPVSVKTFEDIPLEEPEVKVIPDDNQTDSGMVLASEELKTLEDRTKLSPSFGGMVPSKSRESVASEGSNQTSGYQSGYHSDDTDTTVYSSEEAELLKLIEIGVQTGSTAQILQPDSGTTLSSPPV
# Test details: KDR (VEGFR2) (enzymatic assay), TR-FRET
# Type: biochemical
# Test conditions: read-out: VEGFR 2 (KDR) pIC50 (converted)
Measured IC50 by item
Endpoint label: IC50 (µM)

compound=COc1cc(OC)c(F)c(N(Cc2nn[nH]n2)c2ccc3ncc(-c4cnn(C)c4)nc3n2)c1 endpoint_label=IC50 relation_qualifier== numeric_result=0.0562
compound=COc1cc(/N=c2\ccc3ncc(-c4cnn(C)c4)nc3n2CCN2CCCC2=O)cc(OC)c1 endpoint_label=IC50 relation_qualifier== numeric_result=0.0309
compound=COc1cc(OC)c(F)c(N(Cc2nccn2C)c2ccc3ncc(-c4cnn(C)c4)nc3n2)c1 endpoint_label=IC50 relation_qualifier== numeric_result=0.0191
compound=COc1cc(OC)c(F)c(N(Cc2cn[nH]c2)c2ccc3ncc(-c4cnn(C)c4)nc3n2)c1 endpoint_label=IC50 relation_qualifier== numeric_result=0.00871
compound=COc1cc(/N=c2\ccc3ncc(-c4cnn(C)c4)nc3n2CC2COC2)c(F)c(OC)c1 endpoint_label=IC50 relation_qualifier== numeric_result=0.00501
compound=COc1cc(/N=c2\ccc3ncc(-c4cnn(C)c4)nc3n2CCN)c(F)c(OC)c1 endpoint_label=IC50 relation_qualifier== numeric_result=0.0162
compound="COc1cc(OC)c(F)c(N(CC(O)COC(C)C)c2ccc3ncc(-c4cnn(CC(O)COC(C)C)c4)nc3n2)c1 (single isomer, unassigned)" endpoint_label=IC50 relation_qualifier== numeric_result=0.049
compound=COc1cc(/N=c2\ccc3ncc(-c4cnn(C)c4)nc3n2CC(C)(C)O)c(F)c(OC)c1 endpoint_label=IC50 relation_qualifier== numeric_result=0.00759
compound=COc1cc(OC)cc(N(Cc2nnc(NCCO)o2)c2ccc3ncc(-c4cnn(C)c4)nc3n2)c1 endpoint_label=IC50 relation_qualifier== numeric_result=0.661
compound="COc1cc(OC)c(F)c(/N=c2\\ccc3ncc(-c4cnn(C)c4)nc3n2CC2CCOC2)c1F (stereo not shown)" endpoint_label=IC50 relation_qualifier== numeric_result=0.00162
compound=COc1cc(OC)c(F)c(N(CC2COC2)c2ccc3ncc(-c4cnn(C)c4)nc3n2)c1 endpoint_label=IC50 relation_qualifier== numeric_result=0.0229
compound=COc1cc(OC)c(F)c(N(Cc2noc(C)n2)c2ccc3ncc(-c4cnn(C)c4)nc3n2)c1 endpoint_label=IC50 relation_qualifier== numeric_result=0.0162
compound=COc1cc(OC)cc(N(Cc2ncn(CCO)n2)c2ccc3ncc(-c4cnn(C)c4)nc3n2)c1 endpoint_label=IC50 relation_qualifier== numeric_result=0.0389
compound=COc1cc(OC)c(F)c(N(Cc2cc(C)no2)c2ccc3ncc(-c4cnn(C)c4)nc3n2)c1 endpoint_label=IC50 relation_qualifier== numeric_result=0.0178
compound=CNCCn1ccnc1CN(c1ccc2ncc(-c3cnn(C)c3)nc2n1)c1cc(OC)cc(OC)c1F endpoint_label=IC50 relation_qualifier== numeric_result=0.0977
compound="COc1ccc(Cl)c(N(CC2CCC(=O)N2)c2ccc3ncc(-c4cnn(C)c4)nc3n2)c1Cl (single isomer, unassigned) [Compound 90]" endpoint_label=IC50 relation_qualifier=> numeric_result=1
compound=COc1cc(OC)c(F)c(N(CC(=O)NCCO)c2ccc3ncc(-c4cnn(C)c4)nc3n2)c1 endpoint_label=IC50 relation_qualifier== numeric_result=0.363
compound=COc1cc(OC)c(F)c(N(Cc2ncco2)c2ccc3ncc(-c4cnn(C)c4)nc3n2)c1 endpoint_label=IC50 relation_qualifier== numeric_result=0.0105
compound="COc1cc(/N=c2\\ccc3ncc(-c4cnn(C)c4)nc3n2CC2CCC(=O)N2CCO)c(F)c(OC)c1 (single isomer, unassigned) [Compound 219]" endpoint_label=IC50 relation_qualifier== numeric_result=0.00794
compound=COc1cc(OC)c(F)c(N(Cc2nnc(NCCO)o2)c2ccc3ncc(-c4cnn(C)c4)nc3n2)c1 endpoint_label=IC50 relation_qualifier== numeric_result=0.105
compound="COc1cc(OC)c(F)c(N(CC2CCC(=O)N2C)c2ccc3ncc(-c4cnn(C)c4)nc3n2)c1 (stereo not shown) [Compound 159]" endpoint_label=IC50 relation_qualifier== numeric_result=0.0832
compound=COc1cc(OC)cc(N(Cc2ncc[nH]2)c2ccc3ncc(-c4ccncc4)nc3n2)c1 endpoint_label=IC50 relation_qualifier== numeric_result=0.0617
compound="COc1cc(OC)c(F)c(N(Cc2ncc[nH]2)c2ccc3ncc(-c4cccnc4)nc3n2)c1 [Compound 190a]" endpoint_label=IC50 relation_qualifier== numeric_result=0.0288
compound=COc1cc(/N=c2\ccc3ncc(-c4cnn(C)c4)nc3n2CCCN2CCCC2=O)c(F)c(OC)c1 endpoint_label=IC50 relation_qualifier== numeric_result=0.00617
compound=COc1cc(OC)cc(N(Cc2nn[nH]n2)c2ccc3ncc(-c4cnn(C)c4)nc3n2)c1 endpoint_label=IC50 relation_qualifier== numeric_result=0.145

Provenance of the data: patent US9309242B2
